- system-tested: NACHT, LRR and PYD domains-containing protein 3 (Mus musculus) (UniProt Q8R4B8)
- Sequence (Q8R4B8 whole entry, the tested form may be a part): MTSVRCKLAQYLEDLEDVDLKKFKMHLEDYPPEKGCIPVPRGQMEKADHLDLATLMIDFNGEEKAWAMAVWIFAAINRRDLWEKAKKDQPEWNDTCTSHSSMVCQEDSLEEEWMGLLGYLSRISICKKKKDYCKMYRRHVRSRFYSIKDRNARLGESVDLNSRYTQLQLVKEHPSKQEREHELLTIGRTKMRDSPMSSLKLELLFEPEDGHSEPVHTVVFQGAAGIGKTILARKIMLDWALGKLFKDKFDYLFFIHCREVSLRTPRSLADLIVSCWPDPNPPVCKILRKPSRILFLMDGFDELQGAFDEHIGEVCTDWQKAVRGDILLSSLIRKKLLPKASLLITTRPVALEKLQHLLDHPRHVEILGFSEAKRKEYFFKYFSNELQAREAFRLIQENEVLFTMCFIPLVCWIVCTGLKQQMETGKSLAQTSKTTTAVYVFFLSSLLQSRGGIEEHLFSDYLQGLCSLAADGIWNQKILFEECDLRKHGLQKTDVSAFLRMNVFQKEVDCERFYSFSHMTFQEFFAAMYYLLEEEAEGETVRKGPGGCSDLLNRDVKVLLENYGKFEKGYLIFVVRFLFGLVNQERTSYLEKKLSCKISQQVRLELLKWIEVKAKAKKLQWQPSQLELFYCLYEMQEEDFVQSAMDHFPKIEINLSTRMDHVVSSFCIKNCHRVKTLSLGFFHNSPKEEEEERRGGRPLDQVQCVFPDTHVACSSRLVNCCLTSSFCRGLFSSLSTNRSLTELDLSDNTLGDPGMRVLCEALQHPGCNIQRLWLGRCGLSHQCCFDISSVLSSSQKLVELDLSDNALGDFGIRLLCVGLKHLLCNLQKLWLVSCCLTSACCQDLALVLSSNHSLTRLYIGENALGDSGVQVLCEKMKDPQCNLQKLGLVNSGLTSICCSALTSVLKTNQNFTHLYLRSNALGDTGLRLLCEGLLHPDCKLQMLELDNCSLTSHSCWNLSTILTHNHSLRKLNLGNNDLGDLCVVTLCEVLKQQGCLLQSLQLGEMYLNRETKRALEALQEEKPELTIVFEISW
- assay-notes: Inhibition of NLRP3 inflammasome activation in mouse […] cells assessed as reduction in LPS/ATP-induced IL-1 beta release at 1 uM pretreated with LPS for 4.5 hrs followed by compound addition for 30 mins prior to ATP addition and measured after 30 mins by ELISA relative to control
- Format: cell-based
- condition-label: J774.A1, time 5.5 hrs
measured-property: inhibition (%)

a = CCCC(=O)Nc1ccc(-c2ccccc2N(Cc2cc(Cl)ccc2OCCOC)C(=O)Cc2ccsc2)cc1
b = CCS(=O)(=O)Nc1ccc(-c2ccccc2N(Cc2cc(Cl)ccc2OCCOC)C(=O)Cc2ccsc2)cc1
-- ask Which has the smaller recorded inhibition, a or b ? Give the label of your selection.
-- reply b
(b: 27.5%, a: 53.9%)

a = CCC(=O)Nc1ccc(-c2ccccc2N(Cc2cc(Cl)ccc2OCCOC)C(=O)c2cc(F)c(F)c(F)c2)cc1
b = COCCOc1ccc(Cl)cc1CN(C(=O)Cc1ccsc1)c1ccccc1-c1ccc(NC(=O)C(C)C)cc1
-- ask Choose between a and b : whose measured inhibition value is numerically larger? Answer = label.
-- reply a
(a: 52.5%, b: 11.1%)

P = CCC(=O)Nc1ccc(-c2ccccc2N(Cc2ccc(F)cc2)C(=O)c2ccc(F)cc2)cc1
Q = CCC(=O)Nc1ccc(-c2ccccc2N(Cc2cc(Cl)ccc2OCC(C)(F)F)C(=O)Cc2ccsc2)cc1
R = COCCOc1ccc(Cl)cc1CN(C(=O)Cc1ccsc1)c1ccccc1-c1ccc(NC(=O)C2CC2)cc1
S = COCCOc1ccc(Cl)cc1CN(C(=O)Cc1ccsc1)c1ccccc1-c1ccc(NC(=O)C2CCCCC2)cc1
T = COCCOc1ccc(Cl)cc1CN(C(=O)Cc1ccsc1)c1ccccc1-c1ccc(NC(=O)/C=C/c2ccccc2)cc1
-- ask Which order do these items take when sorted by rising inhibition? List them. Answer with the labels in sequence, matching the requested order.
-- reply S, T, R, P, Q

a = COCCOc1ccc(Cl)cc1CN(C(=O)Cc1ccsc1)c1ccccc1-c1ccc(NC(=O)[C@@H]2CCC(=O)N2)cc1
b = COCCOc1ccc(Cl)cc1CN(C(=O)Cc1ccsc1)c1ccccc1-c1ccc(NC(=O)OCc2ccccc2)cc1
-- ask Name the one with the greater inhibition value, either a or b as given. Refer to your chosen item by its label in the answer.
-- reply a
(a: 54.1%, b: 10.6%)

---

- system-tested: NACHT, LRR and PYD domains-containing protein 3 (Mus musculus)
- assay-notes: Inhibition of NLRP3 inflammasome activation in mouse […] cells assessed as reduction in LPS/ATP-induced IL-1 beta release at 10 uM pretreated with LPS for 4.5 hrs followed by compound addition for 30 mins prior to ATP addition and measured after 30 mins by ELISA relative to control
- Format: cell-based
- condition-label: J774.A1, time 5.5 hrs
measured-property: inhibition (%)

Example entries begin here.
COCCOc1ccc(Cl)cc1CN(C(=O)Cc1ccsc1)c1ccccc1-c1ccc(NC(=O)CBr)cc1	90.5
CCCCCC(=O)Nc1ccc(-c2ccccc2N(Cc2cc(Cl)ccc2OCCOC)C(=O)c2ccc(F)cc2)cc1	45.4
CCC(=O)Nc1ccc(-c2ccccc2N(Cc2ccc(C(F)(F)F)cc2)C(=O)c2ccc(F)cc2)cc1	82.1
CCC(=O)Nc1ccc(-c2ccccc2N(Cc2cc(Cl)ccc2OCCOC)C(=O)c2cc(F)c(F)c(F)c2)cc1	77.4
CCCCS(=O)(=O)Nc1ccc(-c2ccccc2N(Cc2cc(Cl)ccc2OCCOC)C(=O)Cc2ccsc2)cc1	73.7

P = COCCOc1ccc(Cl)cc1CN(C(=O)Cc1ccsc1)c1ccccc1-c1ccc(NC(=O)[C@@H]2CCC(=O)N2)cc1
Q = C#CCCCC(=O)Nc1ccc(-c2ccccc2N(Cc2cc(Cl)ccc2OCCOC)C(=O)Cc2ccsc2)cc1
R = CCC(=O)Nc1ccc(-c2ccccc2N(Cc2cc(Cl)ccc2OCCOC)C(=O)c2ccc(F)c(F)c2)cc1
-- ask Rank entries according to their inhibition, from the largest number down. Answer by listing the labels in the requested order.
-- reply P, Q, R
(P: 84.5%, Q: 49.6%, R: 27.7%)

I = C=CC(=O)Nc1ccc(-c2ccccc2N(Cc2cc(Cl)ccc2OCCOC)C(=O)Cc2ccsc2)cc1
II = COCCOc1ccc(Cl)cc1CN(C(=O)Cc1ccsc1)c1ccccc1-c1ccc(NC(=O)/C=C/c2ccccc2)cc1
-- ask Two entries are listed, I and II . Which one carries the higher inhibition? Let me know the label of the one you choose.
-- reply I
(I: 72.1%, II: 36.7%)

a = CCC(=O)Nc1ccc(-c2ccccc2N(Cc2cc(Cl)ccc2OCCOC)C(=O)Cc2ccc(F)cc2)cc1
b = COCCOc1ccc(Cl)cc1CN(C(=O)Cc1ccsc1)c1ccccc1-c1ccc(NC(=O)OCc2ccccc2)cc1
-- ask Of a and b , which carries the smaller reported inhibition figure? Indicate which entry you chose by stating its label.
-- reply b
